Measured values drawn from patent US20260070918A1 for this set.

Experiment: Liver microsomal stability, dog
Assay type: in vitro ADME
Conditions: pooled dog liver microsomes, read-out: In vitro CLint
Known microsomal CLint of a selection of molecules
Write the answer as a number in µL/min/mg, unit excluded.

INSERT INTO results (molecule, measure_unit, value_observed) VALUES
  ('COc1sc2ccn(Cc3ccc(C(F)(F)F)cc3)c2c1C(=O)NC1(c2ccc(C(=O)O)cc2)CC1 [Example 4]', 'µL/min/mg', 6.06),
  ('O=C(O)c1ccc(C2(NC(=O)c3c(Cl)sc4ccn(Cc5ccc(C(F)(F)F)cc5)c34)CC2)cc1 [Example 1]', 'µL/min/mg', 9.89);

Now look at this entry.
Task: Value lookup for microsomal CLint; key = O=C(O)c1ccc(C2(NC(=O)c3c(F)sc4ccn(Cc5ccc(C(F)(F)F)cc5)c34)CC2)cc1 [Example 3]
Output: 3.2

====

Test: Liver microsomal stability, human
Format: in vitro ADME
Conditions: pooled human liver microsomes, read-out: Scale-up CLint
Known CLint scaled of a selection of molecules
Write the answer as a number in mL/min/kg, unit excluded.

Guide cases for CLint scaled, answers given:
INSERT INTO results (smiles_text, measured_property, value_observed) VALUES
  ('O=C(O)c1ccc(C2(NC(=O)c3c(Cl)sc4ccn(Cc5ccc(C(F)(F)F)cc5)c34)CC2)cc1', 'CLint scaled', 14.3),
  ('COc1sc2ccn(Cc3ccc(C(F)(F)F)cc3)c2c1C(=O)NC1(c2ccc(C(=O)O)cc2)CC1', 'CLint scaled', 4.06);

Task: Value lookup for CLint scaled; key = O=C(O)c1ccc(C2(NC(=O)c3c(F)sc4ccn(Cc5ccc(C(F)(F)F)cc5)c34)CC2)cc1
Output: 5.05

====

Assay: Rat pharmacokinetic (PK) assay
Format: in vivo, Sprague-Dawley rat
Settings: male, Sprague-Dawley, plasma; Rat po, dose 10 mg/kg (table)
measured.property: AUC(0-t)

Task: Value lookup for AUC(0-t); key = O=C(O)c1ccc(C2(NC(=O)c3c(Cl)sc4ccn(Cc5ccc(C(F)(F)F)cc5)c34)CC2)cc1
Output: 23400 ng·h/mL

====

Experiment: Liver microsomal stability, dog
Type: in vitro ADME
Settings: pooled dog liver microsomes, read-out: Scale-up CLint
measured.property: CLint scaled (mL/min/kg)
Write the answer as a number in mL/min/kg, unit excluded.

INSERT INTO measurements (smiles_text, measured_property, value_observed) VALUES
  ('O=C(O)c1ccc(C2(NC(=O)c3c(Cl)sc4ccn(Cc5ccc(C(F)(F)F)cc5)c34)CC2)cc1', 'CLint scaled', 24.6),
  ('O=C(O)c1ccc(C2(NC(=O)c3c(F)sc4ccn(Cc5ccc(C(F)(F)F)cc5)c34)CC2)cc1', 'CLint scaled', 7.97);

Task: Value lookup for CLint scaled; key = COc1sc2ccn(Cc3ccc(C(F)(F)F)cc3)c2c1C(=O)NC1(c2ccc(C(=O)O)cc2)CC1
Output: 15.1
